Where do the numbers come from? From the supplement of paper PMC7695840.

Please provide measured pIC50 for the entries that follow.
Tested on: Staphylococcus aureus MW2 (mecA+)
Assay Explanation: IC50 (growth, competition assay)
Test Conditions: fluorescent label: DsRed; cefoxitin: subinhibitory
pIC50 is a log-scale quantity: -log10 of the concentration expressed in molar.

For reference, reported pIC50 for O=C(/C=C/c1ccc(O)cc1)c1ccc(O)cc1O stands at 3.89

Noted for CC(=O)NC[C@H]1CN(c2ccc(N3CCOCC3)c(F)c2)C(=O)O1 [Linezolid (Zyvox)] : its pIC50 reads 5.64

Notebook: COc1cc2c(c(OC)c1OC)-c1ccc(=O)c(O)cc1[C@@H](NC(C)=O)CC2 , pIC50 read as 4.09

response.value for Cc1ccc(C(=O)Nc2ccc(CN3CCN(C)CC3)c(C(F)(F)F)c2)cc1C#Cc1cnc2cccnn12 (field: pIC50) = 4.66

Lab book: pIC50 of O=C(O)c1cccnc1Nc1cccc(C(F)(F)F)c1 noted as 4.73

The reported value for CN(C)C(=S)SSC(=S)N(C)C in terms of pIC50 is 4.48

For CCn1cc(C(=O)O)c(=O)c2cc3c(cc21)OCO3 [Oxolinic acid] the molecule record lists pIC50 as 4.74

###

Tested on: Staphylococcus aureus MW2 (mecA+)
Assay Explanation: IC50 (growth, competition assay)
Test Conditions: fluorescent label: DsRed; cefoxitin: subinhibitory
Structures can show the parent of a compound that is named as a salt.
Attribute Measured: pIC50
As a rule, pIC50 stands for the negative log10 of the concentration, concentration in M.

pIC50 measured on Oc1c(Cl)cc(Cl)c2cccnc12 [CAPITROL] = 4.75

# pIC50 (compound: COc1ccc(NC(=O)c2ccc(-c3ccc(-c4noc(C)n4)cc3C)cc2)cc1N1CCN(C)CC1 ) is 4.52

The compound listed as CCN1CCN(C(=O)N[C@@H](C(=O)N[C@@H]2C(=O)N3C(C(=O)O)=C(CSc4nnnn4C)CS[C@H]23)c2ccc(O)cc2)C(=O)C1=O [CEFOBID] has a reported pIC50 of 4.71

// pIC50 lookup, compound = CCCCC[C@H](CC(=O)NO)C(=O)N[C@H](C(=O)N1CCC[C@H]1CO)C(C)C [Actinonin] , result: 4.81

response.value for O=C1C(SCCO)=C(SCCO)C(=O)c2ccccc21 (field: pIC50) = 4.93

The recorded pIC50 for O=[N+]([O-])C=Cc1ccc2c(c1)OCO2 [MNS] is 4.69

Looking up CSc1ccc2c(c1)C(N1CCN(C)CC1)Cc1ccccc1S2 (configuration not stated) [Methiothepin mesylate] , I found its pIC50 recorded as 4.25

C=CC(C1=CC(=O)C(OC)=CC1=O)c1ccccc1 (configuration not stated) [4-METHOXYDALBERGIONE] has a reported pIC50 of 4.23

The reported pIC50 of the compound CC(C)(Sc1ccc(CCN(CCCCC2CCCCC2)C(=O)NC2CCCCC2)cc1)C(=O)O [GW7647] was 4.84

O=[N+]([O-])c1ccc(O)c2ncccc12 [ENTEROCOL] has a reported pIC50 of 4.79

pIC50 measured on CCN(CC)CCOc1ccc(C(=C(Cl)c2ccccc2)c2ccccc2)cc1 [Clomifene citrate (Serophene)] = 4.82

For record C#CC[C@H](c1nc2cc(Cl)ccc2c(=O)n1Nc1ccccc1)N(CCCN)C(=O)c1cccc(Cl)c1F [ARQ 621] the listed pIC50 is 4.05
